B1: ZC3H15 (parent)
chain: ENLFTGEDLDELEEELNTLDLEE

Variants of: B1
ASSAY_SUMMARY: protein stability index of a GFP-peptide fusion (GPS, HEK-293T) (PSI 1-6); higher = more stable;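 also: lentivirally expressed fusions sorted by FACS into six bins by GFP to DsRed ratio, PSI derived from sequencing read proportions per bin multiplied by bin number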
MEASUREMENT_SETUP: c terminus: native
The label depends only on protein stability index: true (1) if it is at least 4, false (0) if it is smaller.

Use these answered entries as a reference point.
>>> cat("F4W")
"true (1)"
>>> cat("G6R")
"true (1)"
>>> cat("L3T")
"true (1)"
>>> cat("L9V")
"true (1)"

-- ask Evaluate `E11N` : protein stability index at minimum 4?
-- reply true (1)

-- ask Evaluate `E7H` : protein stability index at minimum 4?
-- reply true (1)

-- ask Evaluate `L12I` : protein stability index at minimum 4?
-- reply true (1)

-- ask Evaluate `N17C` : protein stability index at minimum 4?
-- reply false (0)

-- ask Evaluate `D20Y` : protein stability index at minimum 4?
-- reply true (1)

-- ask Evaluate `D20W` : protein stability index at minimum 4?
-- reply true (1)

-- ask Evaluate `E23V` : protein stability index at minimum 4?
-- reply true (1)

-- ask Evaluate `E15D` : protein stability index at minimum 4?
-- reply false (0)

-- ask Evaluate `E23H` : protein stability index at minimum 4?
-- reply true (1)

-- ask Evaluate `D8P` : protein stability index at minimum 4?
-- reply true (1)

-- ask Evaluate `T18A` : protein stability index at minimum 4?
-- reply true (1)

-- ask Evaluate `F4L` : protein stability index at minimum 4?
-- reply true (1)

-- ask Evaluate `L3I` : protein stability index at minimum 4?
-- reply true (1)

-- ask Evaluate `E23W` : protein stability index at minimum 4?
-- reply true (1)

-- ask Evaluate `L16Q` : protein stability index at minimum 4?
-- reply false (0)

-- ask Evaluate `L21S` : protein stability index at minimum 4?
-- reply false (0)

From: the supplement of paper PMC10567573
